Assay: PK of compound of Formula (Ia) after single intramuscular dose of solution formulations in Wistar Han rats
Assay type: in vivo
Conditions: male, Wistar Han, rat, plasma, intramuscular, 100 mg/kg, Solution J (~400 mg/mL, poloxamer 188); IM 100 mg/kg; Wistar Han rats; individual animals #1-#4; 168 h; read-out: Plasma concentration

[
  {
    "molecule": "CC(C)(C#Cc1ccc(-c2ccc(Cl)c3c(NS(C)(=O)=O)nn(CC(F)(F)F)c23)c([C@H](Cc2cc(F)cc(F)c2)NC(=O)Cn2nc(C(F)(F)F)c3c2C(F)(F)[C@@H]2C[C@H]32)n1)S(C)(=O)=O [compound of Formula (Ia)]",
    "measure unit": "nM",
    "concentration at 168 h": 481
  }
]

###

Experiment: PK of compound of Formula (Ia) after single subcutaneous dose of solution formulations in Wistar Han rats
Assay type: in vivo
Settings: male, Wistar Han, rat, plasma, sc, 50 mg/kg, mean ± SD, n = 3 rats; SC 50 mg/kg; solution R, 400 mg/mL; read-out: AUC0-1680h
measurement label: AUC(0-t) (µM·h)

[
  {
    "smiles record": "CC(C)(C#Cc1ccc(-c2ccc(Cl)c3c(NS(C)(=O)=O)nn(CC(F)(F)F)c23)c([C@H](Cc2cc(F)cc(F)c2)NC(=O)Cn2nc(C(F)(F)F)c3c2C(F)(F)[C@@H]2C[C@H]32)n1)S(C)(=O)=O",
    "observed result": 504
  }
]

###

Test: PK of compound of Formula (Ia) after single subcutaneous dose of solution formulations in Wistar Han rats
Format: in vivo
Settings: male, Wistar Han, rat, plasma, sc, 50 mg/kg, 2016 h; mean, n = 5 rats; SC 50 mg/kg; solution U, 500 mg/mL
measurement label: concentration at 2016 h

[
  {
    "smiles record": "CC(C)(C#Cc1ccc(-c2ccc(Cl)c3c(NS(C)(=O)=O)nn(CC(F)(F)F)c23)c([C@H](Cc2cc(F)cc(F)c2)NC(=O)Cn2nc(C(F)(F)F)c3c2C(F)(F)[C@@H]2C[C@H]32)n1)S(C)(=O)=O",
    "measurement label": "concentration at 2016 h",
    "observed result": "174 nM"
  }
]

###

Experiment: PK of compound of Formula (Ia) after single subcutaneous dose of solution formulations in Wistar Han rats
Type: in vivo
Conditions: male, Wistar Han, rat, plasma, sc, 50 mg/kg, Wistar Han rats, SC 50 mg/kg, 400 mg/mL solution Z (3.13% poloxamer 188), 2016 h, Mean n = 4

[
  {
    "smiles record": "CC(C)(C#Cc1ccc(-c2ccc(Cl)c3c(NS(C)(=O)=O)nn(CC(F)(F)F)c23)c([C@H](Cc2cc(F)cc(F)c2)NC(=O)Cn2nc(C(F)(F)F)c3c2C(F)(F)[C@@H]2C[C@H]32)n1)S(C)(=O)=O",
    "concentration at 2016 h": "127 nM"
  }
]

###

Assay: PK of compound of Formula (Ia) after single subcutaneous dose of solution formulations in beagle dogs
Assay type: in vivo
Details: male, beagle, dog, plasma, sc, 6 mg/kg, 96.0 h; individual dogs; SC 6 mg/kg; solution V, 300 mg/mL
Experimental: Formulations containing the compound of Formula (Ia), or a pharmaceutically acceptable salt thereof, were prepared as solutions and optionally administered subcutaneously or intramuscularly to rats, rabbits, and/or dogs. A solution of about 400 mg/mL of the compound of Formula (Ia) having 17.00 w/w % water, 36.40 w/w % PEG 300, 35.20 w/w % of a sodium salt of a compound of Formula (Ia), 5.00 w/w % ethanol, and 6.40 w/w % poloxamer 188 was prepared. […]

[
  {
    "smiles record": "CC(C)(C#Cc1ccc(-c2ccc(Cl)c3c(NS(C)(=O)=O)nn(CC(F)(F)F)c23)c([C@H](Cc2cc(F)cc(F)c2)NC(=O)Cn2nc(C(F)(F)F)c3c2C(F)(F)[C@@H]2C[C@H]32)n1)S(C)(=O)=O",
    "concentration at 96 h, nM": 39.5
  }
]

Ref: patent US11807625B2
